# SYSTEM_TESTED: MS2 DNA fragment (MS2F and MS2R)
# EXPERIMENTAL_DETAILS: DNase I footprinting on MS2 DNA fragment
# REPORTED_CONDITIONS: read-out: DNase IC50 (concentration of conjugate providing 50% inhibition of DNase I-mediated cleavage); site 5'-62CAATACACA70-3'; estimated by eye from footprint images
REPORTED_PROPERTY: IC50

The reported IC50 value, MS2 DNA fragment (MS2F and MS2R), for "COC(=O)c1cc(NC(=O)CCCOc2cc3c(cc2OC)C(=O)N2CCC[C@H]2C=N3)cn1C" reads ≥ 10 µM
